The reported measurements were obtained from patent US20220117266A1.

# Tested on: C. jejuni 81-176
# test-summary: Growth inhibition, liquid 96-well checkerboard (OD600, MIC, MBC)
# Format: cell-based, Campylobacter jejuni
# experimental-parameters: metal with DMG 0 mM
measurement-name: MIC

Q: Please list MIC recorded for the compound O=S(=O)([O-])[O-].[Ni+2] [Ni, NiSO4, reference compound]
A: > 1020 µM

Q: Give the reported MIC for this compound. O=S(=O)([O-])[O-].[Cu+2] [Cu, CuSO4, reference compound]
A: > 1020 µM

Q: Give reported MIC value for [Cl-].[Cl-].[Co+2] [CO^2+, CoCl2, reference compound]
A: > 1020 µM

Q: Query MIC for O=S(=O)([O-])[O-].[Zn+2] [Zn, ZnSO4, reference compound]
A: 512 µM
